Target: protein kinase C
Assay: inhibition of protein kinase C in vitro (protein kinase-induced incorporation of 32P from [γ-32P]ATP into histone)
Conditions: histone substrate, read-out: IC50: concentration which reduces by 50% the protein kinase-induced incorporation of ^32 P from [γ-^32 P]ATP into histone
quantity_measured: IC50 (nM)
Give a bare numeral; the unit nM is implied.

smiles_repr: Cn1cc(C2=C(c3cn(CCC(N)=O)c4ccccc34)C(=O)NC2=O)c2ccccc21
target_system: protein kinase C
readout_number: 500
--
smiles_repr: Cn1cc(C2=C(c3cn(CCCSC(=N)N)c4ccccc34)C(=O)NC2=O)c2ccccc21
target_system: protein kinase C
readout_number: 10

Consider the compound shown here: Cn1cc(C2=C(c3cn(CCCN=C=S)c4ccccc34)C(=O)NC2=O)c2ccccc21 What is its recorded IC50?
8
